Hello, the source for this data is paper PMC6152134, in case you need it.

Test system: BEL-7402 (liver) human carcinoma cell line
EXPERIMENTAL PROTOCOL: MTT cytotoxicity assay, BEL-7402 cells
Format: cell-based
SETTINGS: Homo sapiens, 48 h exposure
Procedure: Compounds 4a–x were evaluated for their cytotoxic activity in vitro against the human cancer cell lines, CNE-2, HepG2, HeLa, and BEL-7402 by using a 3-(4,5-dimethylthiazol-2-yl)-2,5-diphenyl tetrazolium bromide (MTT) colorimetric assay. Cisplatin was included in the experiments as a positive control, and the IC50 of DHA is also presented to compare the anticancer activities. The calculated IC50 values were reported differently according to the different cancer cells. […]
pIC50: −log10 of the molar value.
ENDPOINT LABEL: pIC50

Cc1ccc(C=NNC(=O)COC(=O)C2(C)CCCC3(C)c4ccc(C(C)C)cc4CCC23)cc1 (stereo not shown) | 4.81
CC(C)c1ccc2c(c1)CCC1C(C)(C(=O)OCC(=O)NN=Cc3ccco3)CCCC21C (stereo not shown) | 4.77
CC(C)c1ccc2c(c1)CCC1C(C)(C(=O)OCC(=O)NN=Cc3cccc(F)c3)CCCC21C (stereo not shown) | 4.59
COc1ccccc1C=NNC(=O)COC(=O)C1(C)CCCC2(C)c3ccc(C(C)C)cc3CCC12 (stereo not shown) | 4.62
CC(C)c1ccc2c(c1)CCC1C(C)(C(=O)OCC(=O)NN=Cc3ccc(F)cc3)CCCC21C (stereo not shown) | 4.60
CC(C)c1ccc2c(c1)CCC1C(C)(C(=O)OCC(=O)NN=Cc3ccccc3)CCCC21C (stereo not shown) | 4.44
CC(C)c1ccc2c(c1)CCC1C(C)(C(=O)OCC(=O)NN=Cc3ccccc3Br)CCCC21C (stereo not shown) | 4.32
CC(C)c1ccc2c(c1)CCC1C(C)(C(=O)OCC(=O)NN=Cc3cccc(Br)c3)CCCC21C (stereo not shown) | 4.70
CC(C)c1ccc2c(c1)CCC1C(C)(C(=O)OCC(=O)NN=Cc3cccc([N+](=O)[O-])c3)CCCC21C (stereo not shown) | 4.35
CC(C)c1ccc2c(c1)CCC1C(C)(C(=O)OCC(=O)NN=Cc3cc(F)cc(F)c3)CCCC21C (stereo not shown) | 4.84
CC(C)c1ccc2c(c1)CCC1C(C)(C(=O)OCC(=O)NN=Cc3ccccc3F)CCCC21C (stereo not shown) | 4.64
CC(C)c1ccc2c(c1)CCC1C(C)(C(=O)OCC(=O)NN=Cc3c(F)cccc3F)CCCC21C (stereo not shown) | 4.69
CC(C)c1ccc2c(c1)CCC1C(C)(C(=O)OCC(=O)NN=Cc3cccc(F)c3F)CCCC21C (stereo not shown) | 4.73
CC(C)c1ccc2c(c1)CCC1C(C)(C(=O)OCC(=O)NN=Cc3ccc(F)cc3F)CCCC21C (stereo not shown) | 4.73
COc1cccc(C=NNC(=O)COC(=O)C2(C)CCCC3(C)c4ccc(C(C)C)cc4CCC23)c1 (stereo not shown) | 4.83
COc1cc(C=NNC(=O)COC(=O)C2(C)CCCC3(C)c4ccc(C(C)C)cc4CCC23)ccc1O (stereo not shown) | 4.47
